Listing: drug sensitivity score of selected compounds
System: FMOC06 (patient-derived mucinous ovarian cancer cells)
Assay: drug sensitivity score (DSS3, normalised partial AUC of % inhibition dose-response) (DSS (score)); higher = more sensitive (stronger inhibition of viability); extreme values may be limits of the assay
Conditions: 72 h; library: FO5A; assay format: 2D, 384-well, CellTiter-Glo
Field format: numeric only.

Take a look at these entries with their results.
COMPOUND	drug sensitivity score
CCCCCCCCCCCCCCCCOP(=O)([O-])OCC[N+](C)(C)C	9.1
CN[C@@H](C)C(=O)N[C@H](C(=O)N1CCC[C@H]1c1nc(C(=O)c2ccc(F)cc2)cs1)C1CCCCC1	10.9
CC[C@@H]1C(=O)N(C)c2cnc(Nc3ccc(C(=O)N[C@H]4CC[C@H](N5CCN(CC6CC6)CC5)CC4)cc3OC)nc2N1C(C)C	1.2

// drug sensitivity score value for CC[C@H](Nc1ncnc2[nH]cnc12)c1nc2cccc(F)c2c(=O)n1-c1ccccc1 : 2.7

Record CNC(=O)c1cccc2cc(Oc3ccnc4cc(OCC5(N)CC5)c(OC)cc34)ccc12 , field drug sensitivity score: 0.3

---

Recorded drug sensitivity score for the following compounds
Test system: FMOC14 (patient-derived high-grade serous ovarian cancer cells)
Assay: drug sensitivity score (DSS3, normalised partial AUC of % inhibition dose-response) (DSS (score)); higher = more sensitive (stronger inhibition of viability); extreme values may be limits of the assay
Settings: 72 h; library: FO5A; assay format: 2D, 384-well, CellTiter-Glo
Could you respond with only the numeric value?

// solved cases for drug sensitivity score follow
COMPOUND	drug sensitivity score
O=C(Nc1cc(Cl)cc2c1[nH]c1cnccc12)c1cccnc1	0
CC(C)(C)NC(=O)[C@H]1CC[C@H]2[C@@H]3CC[C@H]4NC(=O)C=C[C@]4(C)[C@H]3CC[C@]12C [Finasteride]	0
CCn1cc(-c2ccnc3[nH]c(-c4cccc(CN(C)C)c4)cc23)c(-c2ccc(NC(=O)N(C)C)cc2)n1	0
CC(C)C(=O)Nc1ccc([N+](=O)[O-])c(C(F)(F)F)c1 [Flutamide]	0
COc1cccc2c1c(O)c(C(=O)N(C)c1ccc(C(F)(F)F)cc1)c(=O)n2C	0

Field drug sensitivity score (FMOC14), entry COc1cc2ncnc(Nc3cccc(Cl)c3F)c2cc1OC(=O)N1CCN(C)C[C@H]1C : 0.5

The compound CNC(=O)c1cccc2cc(Oc3ccnc4cc(OCC5(N)CC5)c(OC)cc34)ccc12 , tested on FMOC14, showed drug sensitivity score of 0

Reported FMOC14 drug sensitivity score for item CCC(C)n1ncn(-c2ccc(N3CCN(c4ccc(OCC5COC(Cn6cncn6)(c6ccc(Cl)cc6Cl)O5)cc4)CC3)cc2)c1=O (stereo not drawn) was 1.3

---

System: FMOC06
Assay: drug sensitivity score (DSS3, normalised partial AUC of % inhibition dose-response) (DSS (score)); higher = more sensitive (stronger inhibition of viability); extreme values may be limits of the assay
Details: 72 h; library: FO5A; assay format: 2D, 384-well, CellTiter-Glo
drug sensitivity score overview
# print the numeric value only

Answered cases to consult:
MOLECULE	SYSTEM TESTED	drug sensitivity score
Cc1nc(Nc2ncc(C(=O)Nc3c(C)cccc3Cl)s2)cc(N2CCN(CCO)CC2)n1 [Dasatinib]	FMOC06	5
CC(=O)O[C@H]1C(=O)[C@@]2(C)[C@H]([C@H](OC(=O)c3ccccc3)[C@]3(O)C[C@H](OC(=O)[C@H](O)[C@@H](NC(=O)c4ccccc4)c4ccccc4)C(C)=C1C3(C)C)[C@]1(OC(C)=O)CO[C@@H]1C[C@@H]2O [Paclitaxel]	FMOC06	10.1

Case Cc1nc2cccc(N)c2c(=O)n1C1CCC(=O)NC1=O (stereo not drawn) [CC122] , FMOC06, drug sensitivity score recorded as 0

---

As shown below, each of these compounds has a reported drug sensitivity score value.
System: FMOC11 (patient-derived high-grade serous ovarian cancer cells)
Assay: drug sensitivity score (DSS3, normalised partial AUC of % inhibition dose-response) (DSS (score)); higher = more sensitive (stronger inhibition of viability); extreme values may be limits of the assay
Conditions: 72 h; library: FO5A; assay format: 2D, 384-well, CellTiter-Glo
The reply should be a number, written without any unit.

Reference set, count: 7
COMPOUND STRUCTURE	SYSTEM TESTED	drug sensitivity score
CN1CCN(C2CCN(C(=O)Nc3cc(Oc4ccc(NC(=O)C5(C(=O)Nc6ccc(F)cc6)CC5)c(F)c4)ccn3)CC2)CC1	FMOC11	0
CNCc1ccc(-c2[nH]c3cc(F)cc4c3c2CCNC4=O)cc1	FMOC11	0
Cc1cc(C)c(CNC(=O)c2cc(-c3ccc(CN4CCOCC4)cc3)cc3c2cnn3C2CCCC2)c(=O)[nH]1	FMOC11	0
CC[C@@H]1CN(C(=O)NCC(F)(F)F)C[C@@H]1c1cnc2cnc3[nH]ccc3n12	FMOC11	0
S=C(NCc1ccc2c(c1)OCO2)N1CCN(c2ncnc3c2oc2ccccc23)CC1	FMOC11	0.7
CC(C)n1cnc2c(NCCc3ccc(O)cc3)nc(-c3csc4ccccc34)nc21	FMOC11	1
Oc1ncnc2[nH]ncc12	FMOC11	0

Reported drug sensitivity score ( C[C@H]1CNCCCN1S(=O)(=O)c1cccc2cncc(F)c12 ) = 0

---

Test system: FMOC25_2 (patient-derived low-grade serous ovarian cancer cells)
Assay: drug sensitivity score (DSS3, normalised partial AUC of % inhibition dose-response) (DSS (score)); higher = more sensitive (stronger inhibition of viability); extreme values may be limits of the assay
Conditions: 72 h; library: FO5A; assay format: 2D, 384-well, CellTiter-Glo
MEASUREMENT TYPE: drug sensitivity score

The examples below pair each entry with its known result.
COMPOUND STRUCTURE	SYSTEM TESTED	drug sensitivity score
C[C@H](Nc1ncnc2[nH]cnc12)c1cc2ccc(F)cc2nc1-c1ccccn1	FMOC25_2	0
CN1CCN(c2nc(C3=C(c4c[nH]c5ccccc45)C(=O)NC3=O)c3ccccc3n2)CC1	FMOC25_2	0

# drug sensitivity score (compound: O=c1[nH]c(=O)n([C@H]2C[C@H](O)[C@@H](CO)O2)cc1F ) is 3.8

So for Cc1cc(Nc2ncc(Cl)c(Nc3ccccc3S(=O)(=O)C(C)C)n2)c(OC(C)C)cc1C1CCNCC1 , the logged drug sensitivity score turned out to be 4.8

Summary for this compound, Cn1ncc(Cl)c1-c1cc(C(=O)N[C@H](CN)Cc2ccc(F)c(F)c2)oc1Cl : drug sensitivity score is 4.1

Lab note: C[C@@H](Nc1cc(F)cc(F)c1)c1cc(C(=O)N(C)C)cc2c(=O)cc(N3CCOCC3)oc12 gave drug sensitivity score of 2.1

---

Tested on: FMOC09 (patient-derived high-grade serous ovarian cancer cells)
Experiment: drug sensitivity score (DSS3, normalised partial AUC of % inhibition dose-response) (DSS (score)); higher = more sensitive (stronger inhibition of viability); extreme values may be limits of the assay
Conditions: 72 h; library: FO5A; assay format: 2D, 384-well, CellTiter-Glo
Listed compounds paired with reported drug sensitivity score
Give the value as a plain number.

COMPOUND	SYSTEM TESTED	MEAS VALUE
Cc1nc(=O)c2cc(CN(C)c3ccc(C(=O)N[C@@H](CCC(=O)O)C(=O)O)s3)ccc2[nH]1 [Raltitrexed]	FMOC09	0

Given the compound CC#CC(=O)N1CC[C@@H](n2c(=O)n(-c3ccc(Oc4ccccc4)cc3)c3c(N)ncnc32)C1 [Tirabrutinib] and test system FMOC09, the measured drug sensitivity score is 0

Observed drug sensitivity score on FMOC09, entry O=c1sn(-c2cccc3ccccc23)c(=O)n1Cc1ccccc1 [Tideglusib] , equals 0

Form: item CN(C)CC#Cc1ccc(OCCCc2sc(N3CCc4cccc(C(=O)Nc5nc6ccccc6s5)c4C3)nc2C(=O)O)c(F)c1 ; test system FMOC09; drug sensitivity score: 9.7

Kindly note: FMOC09, Cn1cncc1[C@@](N)(c1ccc(Cl)cc1)c1ccc2c(c1)c(-c1cccc(Cl)c1)cc(=O)n2C [Tipifarnib] , drug sensitivity score value reported: 2.2

Per the reported FMOC09 data, CNC(=O)c1ccc2cc([C@@]3(O)CCn4cncc43)ccc2c1 [Orteronel] has drug sensitivity score of 0

---

Tested on: FMOC22 (patient-derived mucinous ovarian cancer cells)
Assay: drug sensitivity score (DSS3, normalised partial AUC of % inhibition dose-response) (DSS (score)); higher = more sensitive (stronger inhibition of viability); extreme values may be limits of the assay
Settings: 72 h; library: FO5A; assay format: 2D, 384-well, CellTiter-Glo
MEASUREMENT TYPE: drug sensitivity score
API note: the answer field is a bare number with no unit suffix.

Worked cases, drug sensitivity score given:
MOLECULE	drug sensitivity score
CONC(=O)c1ccccc1Nc1cc(Nc2cc(C)nn2C(C)C)ncc1Cl	0
O=C(c1ccc(C(=O)N2CCC(N3CCCC3)CC2)c(Nc2ccccc2)c1)N1CCC(N2CCCC2)CC1 [UNC1215]	0
Nc1nc2[nH]cc(CCc3ccc(C(=O)N[C@@H](CCC(=O)O)C(=O)O)cc3)c2c(=O)[nH]1 [Pemetrexed]	3.4
COc1cccc2c1C(=O)c1c(O)c3c(c(O)c1C2=O)C[C@@](O)(C(C)=O)C[C@@H]3O[C@H]1C[C@H](N)[C@H](O)[C@H](C)O1 [Daunorubicin]	4.9
c1cc(CN2CCCNCCNCCCNCC2)ccc1CN1CCCNCCNCCCNCC1 [Plerixafor]	0
O=C(Nc1cccc(NC(=O)c2cccc(O)c2O)c1)c1cccc(O)c1O [MST-312]	10.1
Cc1nc(NC(=O)N2CCC[C@H]2C(N)=O)sc1-c1ccnc(C(C)(C)C(F)(F)F)c1 [Alpelisib]	0.7
NS(=O)(=O)NCCNc1nonc1/C(=N/O)Nc1ccc(F)c(Br)c1 [Epacadostat]	0
CCCCCCCCCCCCCCCCCCOP(=O)([O-])OC1CC[N+](C)(C)CC1 [Perifosine]	0
CN(C)C1CCN(C(=O)c2ccc(NC(=O)Nc3ccc(-c4nc(N5CCOCC5)nc(N5CCOCC5)n4)cc3)cc2)CC1 [Gedatolisib]	10.7

Short answer on FMOC22 for Nc1nc(OCc2cc(Br)cs2)c2[nH]cnc2n1 [Lomeguatrib] , drug sensitivity score: 0

# CC[C@]12C=CCN3CC[C@@]4(c5cc([C@@]6(C(=O)OC)C[C@@H]7C[C@@H](C(C)(F)F)CN(Cc8c6[nH]c6ccccc86)C7)c(OC)cc5N(C)[C@H]4[C@@](O)(C(=O)OC)[C@@H]1OC(C)=O)[C@@H]32 [Vinflunine] with FMOC22: drug sensitivity score is 0.9
